- Test system: SH-SY5Y
- PROTOCOL_TEXT: Neuroprotective activity against CdCl2-induced toxicity in human SH-SY5Y cells assessed as cell viability at 25 uM preincubated for 2 hrs followed by CdCl2 challenge and measured after 24 hrs by CCK8 assay (reference value: 46.2 +/- 1.7%)
- Type: functional
- ASSAY_SETUP: read-out: Activity
RECORDED_METRIC: viability at 25 µM (%)
Provide the reading as a plain figure in %.

Some entries whose results are on file:
O=C1[C@@H]2CCC(=O)N2Cc2ccccc2N1CCCN1CCN(c2ncccn2)CC1 : 51.3
O=C1[C@@H]2CCC(=O)N2Cc2ccccc2N1CCCN1CCN(c2ccccn2)CC1 : 56.7
Cc1ccc(-c2ccc3c(c2)CN2C(=O)CC[C@H]2C(=O)N3)cc1 : 33.9
Cc1ccccc1-c1ccc2c(c1)CN1C(=O)CC[C@@H]1C(=O)N2 : 42.3
O=C1[C@@H]2CCC(=O)N2Cc2cc(Br)ccc2N1CCCCN1CCN(c2ncccn2)CC1 : 63.1

Known value: SH-SY5Y viability at 25 µM of the molecule COc1cc2c(cc1O)CN1C(=O)CC[C@H]1C(=O)N2 equals 55.7

Known value: SH-SY5Y viability at 25 µM of the molecule O=C1Nc2cc3c(cc2CN2C(=O)CC[C@@H]12)OCO3 equals 59.2

Known value: SH-SY5Y viability at 25 µM of the molecule COc1cc2c(cc1OCc1ccccc1)CN1C(=O)CC[C@H]1C(=O)N2CCCCN1CCN(c2ccccn2)CC1 equals 68.6

Known value: SH-SY5Y viability at 25 µM of the molecule COc1cc2c(cc1O)CN1C(=O)CC[C@@H]1C(=O)N2 equals 56.8

Known value: SH-SY5Y viability at 25 µM of the molecule O=C1Nc2ccc(Br)cc2CN2C(=O)CC[C@H]12 equals 60.4
